Exercise: for every item that follows, state its recorded Activity.
system: Brain; assay: Antioxidant activity in Wistar rat brain assessed as catalase content; format: functional; also: test concentration or dose not given here
One number for each entry, in µg/mL.

Illustrative cases are given below, each with its answer.
COc1ccc2c3c1O[C@H]1C[C@@H](OP(=O)(OCCO)N(CCCl)CCCl)C=C[C@@]31CCN(C)C2 (some centres not stated) ... 291.27
COc1ccc2c3c1O[C@H]1C[C@@H](OP(=O)(NCCN)Oc4ccc([N+](=O)[O-])cc4)C=C[C@@]31CCN(C)C2 (some centres not stated) ... 295.92
COc1ccc2c3c1O[C@H]1C[C@@H](O)C=C[C@@]31CCN(C)C2 ... 283.44
COc1ccc2c3c1O[C@H]1C[C@@H](OP(=O)(NCCO)N(CCCl)CCCl)C=C[C@@]31CCN(C)C2 (some centres not stated) ... 287.59
COc1ccc2c3c1O[C@H]1C[C@@H](OP(=O)(OP(=O)(O)O)N(CCCl)CCCl)C=C[C@@]31CCN(C)C2 (some centres not stated) ... 278.33

Below is a list of compounds. For each, state its recorded Activity.
1. COc1ccc2c3c1O[C@H]1C[C@@H](OP(=O)(SCCO)N(CCCl)CCCl)C=C[C@@]31CCN(C)C2 (some centres not stated)
2. COc1ccc2c3c1O[C@H]1C[C@@H](OP(=O)(NCCO)Oc4ccc([N+](=O)[O-])cc4)C=C[C@@]31CCN(C)C2 (some centres not stated)

285.32
284.32
